Test system: CHO
assayComment: % viability of CHO cells (MTT); higher = less toxic
protocolConditions: 2 µM; 48 h
measurementLabel: % viability of CHO cells (%)

1. C/C(=N\NC(=O)C1CC1c1ccccc1)c1ccc(NC(=O)c2ccco2)cc1 (configuration not stated) = 101
2. Nc1nc(C(F)(F)F)cc2c1[nH]c(=O)n2Cc1ccccc1 = 89.2
3. CCOC(=O)N[C@@H]1CC[C@@H]2[C@@H](C1)C[C@H]1C(=O)O[C@H](C)[C@H]1[C@H]2/C=C/c1ccc(-c2cccc(F)c2)cn1 = 72.3
4. CC(N)C(=O)NC(CCCCN)C(=O)NC(CCCNC(=N)N)C(=O)NC(Cc1c[nH]cn1)C(=O)NC(Cc1c[nH]cn1)C(=O)NCC(=O)NC(Cc1ccc(O)cc1)C(=O)NC(CCCCN)C(=O)NC(CCCNC(=N)N)C(=O)NC(CCCCN)C(=O)NC(Cc1ccccc1)C(=O)NC(Cc1c[nH]cn1)C(N)=O (configuration not stated) = 105
5. C[C@@H](O)[C@H](N)C(=O)NS(=O)(=O)c1cccc(-c2ccc3[nH]ncc3c2)c1 = 85.2
6. O=C(O)COc1cccc2c1CC[C@](O)(COC(=O)N(c1ccccc1)c1ccccc1)C2 = 92.5
7. O=c1oc2ccc(Br)cc2cc1CSc1ncc[nH]1 = 112
8. CC(=O)O[C@H]1C[C@@]2(C)[C@@H](C[C@@H](O)[C@H]3[C@@]4(C)CC[C@@H](O)[C@@H](C)[C@@H]4CC[C@@]32C)/C1=C(\CCC=C(C)C)C(=O)O = 108
9. N#C/C(=C1/SC[C@H](c2ccc(Cl)cc2Cl)S1)n1ccnc1 = 113
10. CCc1cc(O)c(Oc2ccc(C(N)=O)cc2F)cc1F = 116
11. O=[N+]([O-])c1cn2c(n1)OC[C@@H](OCc1ccc(OC(F)(F)F)cc1)C2 = 92.7
12. NC(=O)[C@@H]1CC[C@@H]2CN1C(=O)N2OS(=O)(=O)O = 82.9
13. CCCCC(CC)CNC(=N)NC(=N)NCCCCCCNC(=N)NC(=N)NCC(CC)CCCC (configuration not stated) = 101
14. C[C@@H](NC(=O)c1cccc(-c2c[nH]c(-c3cc4ccccc4cn3)n2)c1)c1ccc(F)cc1 = 91.9
15. OCCCCn1cnc2c(O)nc(NCc3ccc(Cl)c(Cl)c3)nc21 = 95.4
16. CC(C)(C)NC(=O)[C@@H]1CN(Cc2cnc3occc3c2)CCN1C[C@@H](O)C[C@@H](Cc1ccccc1)C(=O)N[C@H]1c2ccccc2C[C@H]1O = 99.9
17. CC1CCc2c(N3CCC(O)CC3)c(F)cc3c(=O)c(C(=O)O)cn1c23 (configuration not stated) = 84.2
18. CC(C)/N=c1\cc2n(-c3ccc(Cl)cc3)c3ccccc3nc-2cc1Nc1ccc(Cl)cc1 = 96.5
19. Cc1c(CN(C)C(=O)/C=C/c2cnc3c(c2)C(C)(C)C(=O)N3)oc2ccccc12 = 105
20. Cc1nc(Nc2ccc(F)cc2)nc(N2CCc3ccccc3C2C)c1C (configuration not stated) = 103
21. Nc1cc(N)c2nc(-c3ccccc3)c(Nc3ccc(F)cc3)nc2c1 = 97.5
22. NC(=O)c1nccn([C@@H]2O[C@H](CO)[C@@H](O)[C@H]2O)c1=O = 91.2
23. Cc1ccc(C)c(OCCCCCCN2C[C@H](O)[C@@H](O)[C@H](O)[C@H]2CO)c1 = 111
24. Cc1cccc(CC(=O)N[C@H]2CCOC2=O)c1 = 95.4
25. O=C(CCCC(F)(F)F)N1CCC(c2nc(-c3nccs3)no2)CC1 = 113
26. CCc1nc(N)nc(N)c1C#CCc1ccccc1 = 105
27. CN1CCN(c2ccc3[nH]c(-c4ccc5[nH]c(-c6ccc(O)cc6)nc5c4)nc3c2)CC1 = 106
28. O=C(NN1C(=O)[C@@H]2C3C=CC([C@H]4C[C@@H]34)[C@@H]2C1=O)c1ccc(C(F)(F)F)cc1 = 97.4
29. O=C(O)c1cc(-c2ccc(Br)cc2)nc2ccc(Cl)cc12 = 96.8
30. NC(=S)N/N=C/c1ncccc1N = 111
31. CN(C)CCNC(=O)c1cccc2cccnc12 = 70.5
32. c1ccc(Cn2c(-c3ccccn3)nc3ccccc32)cc1 = 75.8
33. O=C(c1cc(O)nc2ccccc12)N1CCN(c2ccccc2)CC1 = 95.9
34. O=S(=O)(Nc1cccc2cccnc12)c1ccccc1 = 85
35. CC[C@H](CO)Nc1nc(NCc2ccccc2)c2ncn(C(C)C)c2n1 = 157
36. O=[N+]([O-])c1cn(Cc2nc(O)nc(O)c2Br)cn1 = 95.9
37. C[C@H](NC(CC(=O)c1ccccc1C(F)(F)F)C(=O)O)c1ccccc1 (some centres not stated) = 119

----------
Tested on: Plasmodium falciparum NF54 stage IV/V gametocytes
assayComment: % inhibition of gametocyte viability (PrestoBlue); higher = more inhibition
protocolConditions: 1 µM; 48 h
measurementLabel: % inhibition of gametocyte viability

1) O=S(=O)(Nc1ccc(O)cc1)c1cccc2cccnc12 = < 0%
2) CCCCCCC1c2ccc(O)cc2Oc2cc(O)ccc21 = 5.99%
3) COc1ccc(NS(=O)(=O)c2ccc(Cl)s2)cn1 = < 0%
4) CCc1cc(O)c(Oc2cccnc2N)cc1F = < 0%
5) OC1O[C@H](CSc2ccc(F)cc2)[C@@H](O)[C@H]1O (some centres not stated) = < 0%
6) O=C(Nc1ccccc1C(=O)O)c1cccc(Oc2ccccc2)c1 = 37.4%
7) O=C1[C@H](CC[C@H](O)c2ccc(F)cc2)[C@@H](c2ccc(O)cc2)N1c1ccc(F)cc1 = < 0%
8) O=C(CSc1nnc(Br)n1-c1ccc(C2CC2)c2ccccc12)Nc1ccc(C(=O)O)cc1Cl = 15.4%
9) Oc1cccc(C(Nc2nccs2)c2ccc3cccnc3c2O)c1 (configuration not stated) = 24.1%
10) Nc1nc(=O)c(Br)c(-c2cccc(Cl)c2)[nH]1 = 9.16%
11) COc1cccc(N2CCN(C3=Nc4c(F)cccc4[C@H](CC(=O)O)N3c3cc(C(F)(F)F)ccc3OC)CC2)c1 = 11.1%
12) [N-]=[N+]=N[C@H]1C[C@H](n2ccc(=O)[nH]c2=O)O[C@@H]1CO = 6.88%
13) c1ccc(-c2nnc3c4ccccc4c(N4CCNCC4)nn23)cc1 = 27.8%
14) CCC(CC)[C@H](NC(C)=O)[C@@H]1[C@H](O)[C@@H](C(=O)O)C[C@H]1NC(=N)N = < 0%
15) O=c1cc(Nc2ccc3ccccc3c2)[nH]c(=O)[nH]1 = < 0%
16) Cc1cc(C2CCCCC2)n(O)c(=O)c1 = < 0%
17) O=C(CC1Sc2ncnn2C1=O)Nc1ccc(Br)cc1 (configuration not stated) = 20.1%
18) O=C(O)c1cc(-c2ccc(Br)cc2)nc2ccc(Cl)cc12 = 14.7%
19) O=C(Nc1nnc(-c2ccc(Cl)cc2)o1)c1nc2ccccc2s1 = 6.81%
20) CC(=O)N1CCN(c2ccc(OCC3COC(Cn4ccnc4)(c4ccc(Cl)cc4Cl)O3)cc2)CC1 (configuration not stated) = 6.22%
21) Fc1ccc2c(/C=C/c3cccnc3)c[nH]c2c1 = < 0%
22) CN(C(=O)C1(c2ccc(Cl)cc2)CCC1)c1ccccc1 = 17.1%
23) Nc1nc(NC2Cc3ccc(F)cc3C2)nc(N2CCCCC2)n1 (configuration not stated) = 28.3%
24) CCN(CC)CCn1c(=N)n(CC(O)COc2ccc(Cl)cc2Cl)c2ccccc21 (configuration not stated) = < 0%
25) COc1ccc2c(c1)cc(CNC(=O)c1cc3ccccc3o1)n2CC(=O)O = < 0%
26) COc1ccc2sc3c(c2c1)NC(C)CNC3=O (configuration not stated) = < 0%
27) c1cnc(NCc2ccc(CNc3ncccn3)cc2)nc1 = 9.96%
28) O=C(c1nc2c(C(F)(F)F)cc(C3CC3)cn2c1Cl)N1CCN([C@H]2CC[C@H](O)CC2)C(=O)C1 = 28.7%
29) CCc1cc(Cc2cnc(N)nc2N)cc2c1N(C)CCC2C (configuration not stated) = < 0%
30) NC(=O)c1cnc2ccc(S(=O)(=O)c3ccccc3)cc2c1Nc1ccc(O)cc1 = < 0%
31) O=C(Nc1nnc(-c2ccc(Cl)cc2)o1)c1ccc(F)cc1 = < 0%
32) CC(C)(C)c1ccc(C(Cn2cccc(C(F)(F)F)c2=O)NC2Cc3ccccc3C2)cc1 (configuration not stated) = 10%
33) Nc1nc(O)ncc1F = 3.77%
34) CC(C)/N=c1\cc2n(-c3ccc(Cl)cc3)c3ccccc3nc-2cc1Nc1ccc(Cl)cc1 = < 0%
35) Cc1ccc(NC(=O)c2cc(Cl)ccc2O)cc1 = < 0%
36) O=C(O)[C@H]1C2CCC(CC2)[C@@H]1Nc1nc(-c2c[nH]c3ncc(F)cc23)ncc1F = < 0%
37) CSc1ccc2c(c1)C(N1CCN(C)CC1)Cc1ccccc1S2 (configuration not stated) = < 0%
38) COc1cc2c(O)c3c(c(-c4ccc5c(c4)OCO5)c2cc1OC)C(=O)OC3 = 13%
39) Cc1cccc(CC(=O)N[C@H]2CCOC2=O)c1 = < 0%
40) CONC(=N)c1ccc(-c2ccc(-c3ccc(C(=N)NOC)cc3)o2)cc1 = 11.8%
41) Cc1c[nH]c(=O)nc1NCc1ccccc1 = 6.6%
42) Cc1c(CN(C)C(=O)/C=C/c2cnc3c(c2)C(C)(C)C(=O)N3)oc2ccccc12 = < 0%
